test system: glycogen synthase; experiment: Glycogen Synthase (GS) Assay, in vitro activation of glycogen synthase; assay type: biochemical; conditions: compound concentration needed to stimulate 200% of the enzyme activity; coupled pyruvate kinase/lactate dehydrogenase assay, absorbance at 340 nm, 37° C
# SC2.0 >= 10 µM gives class 1, anything below gives class 0

Look over these answered cases.
> print(dat)
                                   compound  system.under.test    group
1  COc1ccc(-c2ccc(OCc3cccc(C(=O)O)c3)cc2)cc1 [Example 7]  glycogen synthase  class 0
2  O=C(O)c1csc(COc2ccc(-c3ccc(Cl)cc3)cc2)n1 [Example 26]  glycogen synthase  class 0
3  O=C(O)[C@H]1CCCN1C(=O)c1ccc(COc2ccc(-c3ccccc3)cc2)o1  glycogen synthase  class 0
4      O=C(O)c1ccc(COc2ccc(-c3ccccc3)cc2)s1  glycogen synthase  class 1

Input line: Record O=C(O)c1ccc(COc2ccc(-c3ccc(Cl)cc3)cc2)o1 [Example 12] ; criterion: SC2.0 no lower than 10 µM. Met?
Output line: class 0

Input line: Record O=C(O)c1ccc(COc2cccc(-c3ccccc3)c2)o1 [Example 9] ; criterion: SC2.0 no lower than 10 µM. Met?
Output line: class 1

Input line: Record O=C(NC1(C(=O)O)CCCC1)c1ccc(COc2ccc(-c3ccccc3)cc2)o1 [Example 34] ; criterion: SC2.0 no lower than 10 µM. Met?
Output line: class 1

Input line: Record O=C(O)c1csc(COc2ccc(-c3ccccc3)cc2Cl)n1 [Example 22] ; criterion: SC2.0 no lower than 10 µM. Met?
Output line: class 1

Input line: Record O=C(O)c1ccccc1COc1ccc(-c2ccccc2)cc1Cl [Example 15] ; criterion: SC2.0 no lower than 10 µM. Met?
Output line: class 1

Input line: Record O=C(O)c1cccc(COc2ccc(-c3ccc(Br)cc3)cc2)c1 [Example 4] ; criterion: SC2.0 no lower than 10 µM. Met?
Output line: class 0
